Catalogue of Kd values
experimental_target: T1, EsCas13d, nuclease-dead (Eubacterium siraeum, UniProt B0MS50, R295A;H300A;R849A;H854A)
T1 sequence: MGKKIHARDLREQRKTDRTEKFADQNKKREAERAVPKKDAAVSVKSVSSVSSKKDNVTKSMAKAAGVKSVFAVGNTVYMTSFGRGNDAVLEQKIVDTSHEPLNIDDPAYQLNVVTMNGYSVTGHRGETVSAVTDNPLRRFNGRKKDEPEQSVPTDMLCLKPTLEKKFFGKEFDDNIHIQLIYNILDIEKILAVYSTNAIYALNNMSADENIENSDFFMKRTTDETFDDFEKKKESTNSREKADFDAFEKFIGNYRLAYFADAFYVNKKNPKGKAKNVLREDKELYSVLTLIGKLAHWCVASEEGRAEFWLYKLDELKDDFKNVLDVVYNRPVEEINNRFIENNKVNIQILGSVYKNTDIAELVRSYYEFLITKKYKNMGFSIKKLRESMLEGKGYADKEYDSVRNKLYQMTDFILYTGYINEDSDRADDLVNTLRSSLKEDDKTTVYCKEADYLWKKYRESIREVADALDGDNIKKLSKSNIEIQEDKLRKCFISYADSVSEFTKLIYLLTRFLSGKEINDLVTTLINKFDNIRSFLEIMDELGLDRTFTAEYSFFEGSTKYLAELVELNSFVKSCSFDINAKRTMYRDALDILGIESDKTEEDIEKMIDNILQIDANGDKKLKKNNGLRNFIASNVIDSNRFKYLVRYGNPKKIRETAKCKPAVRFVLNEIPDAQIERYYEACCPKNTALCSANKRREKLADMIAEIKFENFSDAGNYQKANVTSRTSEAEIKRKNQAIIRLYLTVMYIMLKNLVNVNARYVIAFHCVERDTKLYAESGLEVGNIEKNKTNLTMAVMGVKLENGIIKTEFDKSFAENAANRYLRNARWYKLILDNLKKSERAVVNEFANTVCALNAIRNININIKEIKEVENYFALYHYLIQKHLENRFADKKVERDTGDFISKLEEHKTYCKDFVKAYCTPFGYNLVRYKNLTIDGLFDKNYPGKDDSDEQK
procedure_summary: crRNA (strand 1, pre-loaded); Mg2+; 40 mM Tris-HCl pH 7.5, 150 mM NaCl, 6 mM MgCl2, 1 mM DTT, 0.1% Tween-20, 0.2 mg/ml BSA; 25 C; 10 min per concentration, then washed
condition_description: tags: His6-TwinStrep-SUMO cleaved; N-terminal SNAP kept (SNAP-Surface 488); label: 3' end held by stalled T7 RNA polymerase

{"columns": ["binder", "result"],
 "data": [
  ["target 2 MT 5'PFS GAU 3'PFS UAU (mixed) RNA 1: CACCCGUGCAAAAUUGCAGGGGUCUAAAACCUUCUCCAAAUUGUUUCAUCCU RNA 2: GGGAAUGGAUCCACAUCUACGAAUUCGAUAGGAUGAAACAAUUUGGAGAAGUAUAGAUCGGAAGAGCACACGU", "16 nM"],
  ["target 1 insC 3' of 10,insA 3' of 6 (mixed) RNA 1: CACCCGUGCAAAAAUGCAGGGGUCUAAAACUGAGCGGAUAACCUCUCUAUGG RNA 2: GGGAAUGGAUCCACAUCUACGAAUUCGUACCAUAGAGAGGUUCAUCCAGCUCACCGAGAUCGGAAGAGCACACGU", "25.5 nM"],
  ["target 1 G15C,C22A (mixed) RNA 1: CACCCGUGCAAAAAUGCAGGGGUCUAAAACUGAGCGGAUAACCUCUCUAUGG RNA 2: GGGAAUGGAUCCACAUCUACGAAUUCGUAACAUAGACAGGUUAUCCGCUCACCGAGAUCGGAAGAGCACACGU", "63 nM"],
  ["target 3 insG 3' of 8,insC 3' of 4 (mixed) RNA 1: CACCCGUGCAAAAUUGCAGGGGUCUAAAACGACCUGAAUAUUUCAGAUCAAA RNA 2: GGGAAUGGAUCCACAUCUACGAAUUCGUUUUUGAUCUGAAAUAUGUCAGCGUCUGCAGAUCGGAAGAGCACACGU", "38.5 nM"],
  ["target 1 insU 3' of 16,insC 3' of 16 (mixed) RNA 1: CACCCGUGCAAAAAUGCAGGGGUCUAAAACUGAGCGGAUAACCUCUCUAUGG RNA 2: GGGAAUGGAUCCACAUCUACGAAUUCGUACCAUAGAUCGAGGUUAUCCGCUCACCGAGAUCGGAAGAGCACACGU", "47 nM"],
  ["target 1 insC 3' of 22 (mixed) RNA 1: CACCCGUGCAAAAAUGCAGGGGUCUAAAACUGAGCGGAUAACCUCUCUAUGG RNA 2: GGGAAUGGAUCCACAUCUACGAAUUCGUACCCAUAGAGAGGUUAUCCGCUCACCGAGAUCGGAAGAGCACACGU", "14.7 nM"],
  ["target 1 U10C,G17C (mixed) RNA 1: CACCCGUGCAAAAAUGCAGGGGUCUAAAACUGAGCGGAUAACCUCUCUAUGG RNA 2: GGGAAUGGAUCCACAUCUACGAAUUCGUACCAUACAGAGGUCAUCCGCUCACCGAGAUCGGAAGAGCACACGU", "63 nM"]
]}

Then this binder:
Param item = target 3 G4A (mixed) RNA 1: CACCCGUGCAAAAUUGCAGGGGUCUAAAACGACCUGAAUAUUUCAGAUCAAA RNA 2: GGGAAUGGAUCCACAUCUACGAAUUCGUUUUUGAUCUGAAAUAUUCAAGUCUGCAGAUCGGAAGAGCACACGU ; retrieve measured Kd.
4.89 nM
